Test: chemical genetic growth profiling, strain panel (AID 1159580);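 note: tested at 20 µM; growth read once vehicle control cultures reached saturation at 30 °C; 1 = growth at the plate median or of vehicle wells; lower values mean less growth of the strain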
Conditions: S. cerevisiae deletion strains, growth OD, locus YCL061C, strain MRC1, active compounds read low
The whole screen tested about 5,500 compounds, of which about 2,000 (36%) were called active. Roughly 18% stayed inconclusive and do not appear here. This is one part of the list.
Param label: returns 1 when normalized growth < 1, returns -1 otherwise, including exact equality.

Please review the entries below; each comes with its answer.
INSERT INTO assay_data (compound, class_label) VALUES
  ('COc1ccc(-c2oc3cc(OC)c(OC)c(OC)c3c(=O)c2OC)cc1', 1),
  ('O=c1oc2ccccc2cc1[N+](=O)[O-]', 1),
  ('Clc1ccc(C(Cn2ccnc2)OCc2ccsc2Cl)c(Cl)c1 (stereo not drawn)', 1),
  ('NC(N)=NCCN1CCCCCCC1', -1);

Q) Please determine if Clc1ccc(C(c2ccccc2Cl)C(Cl)Cl)cc1 (stereo not drawn) is below 1 in terms of normalized growth.
A) 1

====

Experiment: chemical genetic growth profiling, strain panel (AID 1159580);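 note: tested at 20 µM; growth read once vehicle control cultures reached saturation at 30 °C; 1 = growth at the plate median or of vehicle wells; lower values mean less growth of the strain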
Details: S. cerevisiae deletion strains, growth OD, locus YOR119C, strain RIO1
Hit rate of the full screen: of about 5,500 compounds, about 2,000 (36%) were called active. Not shown: some 18% with an inconclusive outcome. Rule as the data show it: active = normalized growth mostly below about 0.91 (no sharp cut-off); inconclusive = no clear call, values can overlap the other calls; inactive = mostly above about 0.92. The list shows a part of the results.
Choose the fitting class; nothing outside active, inactive is accepted.

Please review the entries below; each comes with its answer.
INSERT INTO measurements (compound, class_label) VALUES
  ('Cc1ccc(S(=O)(=O)Nc2nc(-c3ccc(C)c(Cl)c3)c(C)s2)cc1', 'inactive'),
  ('Clc1ccc(CSc2nccn2-c2cc(Cl)ccc2Cl)cc1', 'inactive'),
  ('N#Cc1cccc(CSc2nc3ccc(C(F)(F)F)cc3[nH]2)c1', 'inactive');

Q) Called result for N/C(=N/O)c1ccc(Oc2ccc(C3SCCS3)cc2)c([N+](=O)[O-])c1
A) inactive

Q) Called result for O=C(Oc1ccc2ccccc2c1C1SCCS1)c1ccc([N+](=O)[O-])o1
A) inactive

Q) Called result for CCOC(=O)c1sc(S(C)=NC(=O)Nc2ccc(Cl)cc2)c2c1CCC=C2 (centres undefined)
A) inactive

Q) Called result for Cc1ccc(-c2nc(NS(=O)(=O)c3cccc4nonc34)sc2C)cc1Cl
A) inactive

Q) Called result for C[C@@H](Nc1ncnc2sc3c(c12)CCCC3)c1ccccc1
A) inactive

Q) Called result for Nc1ccc(Oc2ccc(Cl)cc2C2CCCCC2)nc1
A) inactive

Q) Called result for CC1=CC(=O)N(c2ccc(F)c(Cl)c2)C1=O
A) active

Q) Called result for Cc1ccccc1/C=C/c1c[nH]c2ccccc12
A) inactive

Q) Called result for C/C(=N/NC(=S)NCC(C)(C)C)c1cc(F)cc(Cl)c1O
A) inactive

Q) Called result for Clc1cccc(Nc2ncc(-c3ccc4c(c3)OCCCO4)s2)c1
A) inactive

Q) Called result for Nc1ccccc1C(=O)Nc1cc(C(F)(F)F)cc(C(F)(F)F)c1
A) inactive

Q) Called result for O=C(Nc1cc(Cl)ccc1O)c1ccccc1CSc1ccc(Cl)cc1
A) inactive

Q) Called result for O=[N+]([O-])c1ccsc1Oc1cccc(C(F)(F)F)c1
A) inactive

====

Experiment: chemical genetic growth profiling, strain panel (AID 1159580);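 note: tested at 20 µM; growth read once vehicle control cultures reached saturation at 30 °C; 1 = growth at the plate median or of vehicle wells; lower values mean less growth of the strain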
Settings: S. cerevisiae deletion strains, growth OD, locus YGL173C, strain kem1
In all, about 5,500 compounds went through this assay and about 2,000 (36%) were called active. About 18% were inconclusive and are not listed. Cut-off read from the data, not from the text of the source: active = normalized growth mostly below about 0.91 (no sharp cut-off); inconclusive = no clear call, values can overlap the other calls; inactive = mostly above about 0.92. This is one part of the list.
Choose the fitting class; nothing outside t = active, f = inactive is accepted.

Please review the entries below; each comes with its answer.
INSERT INTO assay_data (molecule, class_label) VALUES
  ('CN(C)CCC(c1ccccc1)c1ccccn1 (configuration not stated)', 'f'),
  ('NCCCNCCSP(=O)(O)O', 'f'),
  ('CC(C)/C(O)=C1/C(=O)O[C@@H](c2ccoc2)[C@]2(C)C(O)[C@@H](O)[C@@]34OC5(C)OC67CC(C)(C(O)[C@]6(O)[C@@H](O)[C@]3(O5)C12)[C@H](CC(=O)O)[C@]74C (some centres not stated)', 'f');

Q) Called result for Cc1cc(/C=C/c2ccc3cc(N(C)C)ccc3[n+]2C)c(C)n1-c1ccccc1
A) f

Q) Called result for Clc1ccc(COC(Cn2ccnc2)c2ccc(Cl)cc2Cl)c(Cl)c1 (configuration not stated)
A) t

Q) Called result for CCC(C)C(=O)c1c(O)c(C)c2oc3c(C)c(O)c(C(=O)C(C)CC)c(O)c3c2c1O (configuration not stated)
A) f

Q) Called result for COc1ccc2nc(S(=O)Cc3ncc(C)c(OC)c3C)[nH]c2c1 (configuration not stated)
A) f

Q) Called result for CC(=O)Oc1c2c(c3c(c1CC=C(C)C)O[C@]14C(=C[C@@H]5CC1C(C)(C)OC4(C/C=C(\C)C(=O)O)C5=O)C3=O)OC(C)(CCC=C(C)C)C=C2 (some centres not stated)
A) f

Q) Called result for CCCn1c(=O)c2[nH]c(C3CCCC3)nc2n(CCC)c1=O
A) f

Q) Called result for C[C@H]1C[C@@H](O)[C@]2(O)[C@@]13CC(=O)OC[C@@]2(C)[C@](C)(O)C(=O)C3
A) f

Q) Called result for COc1ccnc(CS(=O)c2nc3ccc(OC(F)F)cc3[nH]2)c1OC (configuration not stated)
A) f

Q) Called result for COC(=O)[C@@H]1OC(=O)C2OC23[C@@]1(C)CCC1[C@]2(C)C(C[C@@H](O)[C@]13C)C(C)(C)[C@H](OC(C)=O)C[C@@H]2OC(C)=O (some centres not stated)
A) f

Q) Called result for COc1ccc2c(c1)OCC(Cc1ccc(OC)c(OC)c1)C2=O (configuration not stated)
A) f

Q) Called result for CC1C/C=C/C=C/C=C/C=C/C(O[C@@H]2O[C@H](C)[C@@H](O)[C@H](N)[C@@H]2O)CC2OC(O)(CC(O)CC3OC3/C=C/C(=O)O1)CC(O)C2C(=O)O (some centres not stated)
A) f

Q) Called result for CC(=O)Oc1ccc2c(c1)CCC1C2CC[C@]2(C)C(=O)CCC12 (some centres not stated)
A) f

Q) Called result for COC(=O)[C@@H]1OC(=O)C2OC23[C@@]1(C)CCC1[C@@]2(C)CCC(=O)C(C)(C)C2C[C@@H](OC(C)=O)[C@]13C (some centres not stated)
A) f

Q) Called result for CN(C/C=C/C#CC(C)(C)C)Cc1cccc2ccccc12
A) t

Q) Called result for Cc1ccc(C(=O)c2ccc(CC(=O)O)n2C)cc1
A) f

Q) Called result for O=C(O)CCCCCCCC(=O)O
A) f

Q) Called result for O=C1CCCN1CC#CCN1CCCC1
A) f

Q) Called result for COc1cc(C)c2c(=O)cc(-c3ccccc3)oc2c1
A) f

Q) Called result for CC1OC(O[C@H]2/C=C/C=C/C=C/C=C/C=C/C=C/C=C/[C@H](C)[C@@H](O)[C@@H](C)[C@H](C)OC(=O)CC(O)CC(O)CCC(O)C(O)CC(O)C[C@]3(O)C[C@H](O)C(C(=O)O)C(C2)O3)C(O)[C@H](N)C1O (some centres not stated)
A) f

Q) Called result for COc1ccc2c(c1)OCC(Cc1ccc(OC)c(O)c1)C2=O (configuration not stated)
A) f

Q) Called result for CC1[C@H](C)OC(=O)CC(O)CC(O)CC(O)CCC(O)C(O)C[C@]2(O)CC(O)C(C(=O)O)C(CC(OC3O[C@H](C)[C@@H](O)[C@H](N)[C@@H]3O)/C=C/C=C/C=C/C=C/CC/C=C/C=C/[C@H](C)[C@H]1O)O2 (some centres not stated)
A) t

Q) Called result for COP(=S)(OC)Oc1ccc([N+](=O)[O-])cc1
A) f

Q) Called result for CCN1C[C@@]2(COC)C3[C@@H](OC)[C@H]4[C@@H]1[C@]3(C(OC)C[C@H]2O)C1C[C@@]2(O)[C@H](OC(=O)c3ccccc3)C1[C@]4(OC(C)=O)[C@@H](O)[C@@H]2OC (some centres not stated)
A) f

Q) Called result for C[C@]12CCC3c4ccc(OC(=O)c5ccccc5)cc4CCC3C1CCC2=O (some centres not stated)
A) f

====

Test: chemical genetic growth profiling, strain panel (AID 1159580);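 note: tested at 20 µM; growth read once vehicle control cultures reached saturation at 30 °C; 1 = growth at the plate median or of vehicle wells; lower values mean less growth of the strain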
Settings: S. cerevisiae deletion strains, growth OD, locus YGR052W, strain FMP48
Hit rate of the full screen: of about 5,500 compounds, about 2,000 (36%) were called active. Inconclusive results (about 18%) are left out. Cut-off read from the data, not from the text of the source: active = normalized growth mostly below about 0.91 (no sharp cut-off); inconclusive = no clear call, values can overlap the other calls; inactive = mostly above about 0.92. The list shows a part of the results.
Choose the fitting class; nothing outside active, inactive is accepted.

INSERT INTO assay_data (test_smiles, class_label) VALUES
  ('O=c1oc2ccccc2cc1[N+](=O)[O-]', 'active'),
  ('COc1ccc(Nc2nc(NC(=O)Nc3ccc(Cl)cc3)n[nH]2)cc1', 'inactive'),
  ('Clc1ccc(CSc2nccn2-c2cc(Cl)ccc2Cl)cc1', 'inactive'),
  ('Clc1ccc(Oc2ccnc3cc(Cl)ccc23)cc1', 'inactive');

Here is the next item to consider.
Q) Called result for CNC(=O)Sc1c(-c2ccc(Cl)cc2)nn(C(=O)NC)c1SC
A) active
